tested on: OVCAR-4 ovarian; experiment: NCI-60 one-dose screen, 48 h (100 = growth as untreated, 0 = no growth, -100 = all killed); conditions: 10 µM
About 83,000 compounds went through this panel and 20% of them were active in at least one assay; those are over-represented in the sample as a whole.
metric_name: growth (%)
Dear colleague, please return just the value in %, with no unit written.

CC1=C/C(=C(\c2cc(C)c(O)c(C(=O)O)c2)c2c(Cl)cccc2Cl)C=C(C(=O)O)C1=O
108

Retrieve growth on OVCAR-4 ovarian; query "COc1ncnc2c(-c3ccccc3)cn(COCc3ccccc3)c12" 54.4

Retrieve growth on OVCAR-4 ovarian; query "Cc1ccc(S(=O)(=O)Oc2ccc([N+](=O)[O-])cc2[N+](=O)[O-])cc1" 63.6

Where do these numbers come from? They come from PubChem BioAssay (NCI).
